Target: calmodulin (CaM), recombinant (UniProt P0DP23 1-149)
Assay: SPR
Ends that are not written are not given here. * marks the point of attachment. Biotin = O=C1N[C@H]2[C@H](CS[C@H]2CCCCC(=O)*)N1; Ahx = NCCCCCC(=O)O
property: Kd

The value of Kd measured for the binder {Biotin-Ahx}-KKRKKAKKDYQPNYFLSIPI [biotin-ahx-AKAP18δ-N (79–98)] turned out to be 4.7 µM
